# assay-target: TANK-2 enzyme (Homo sapiens)
# Construct: made in house
# Sequence (Q9H2K2 1-1166): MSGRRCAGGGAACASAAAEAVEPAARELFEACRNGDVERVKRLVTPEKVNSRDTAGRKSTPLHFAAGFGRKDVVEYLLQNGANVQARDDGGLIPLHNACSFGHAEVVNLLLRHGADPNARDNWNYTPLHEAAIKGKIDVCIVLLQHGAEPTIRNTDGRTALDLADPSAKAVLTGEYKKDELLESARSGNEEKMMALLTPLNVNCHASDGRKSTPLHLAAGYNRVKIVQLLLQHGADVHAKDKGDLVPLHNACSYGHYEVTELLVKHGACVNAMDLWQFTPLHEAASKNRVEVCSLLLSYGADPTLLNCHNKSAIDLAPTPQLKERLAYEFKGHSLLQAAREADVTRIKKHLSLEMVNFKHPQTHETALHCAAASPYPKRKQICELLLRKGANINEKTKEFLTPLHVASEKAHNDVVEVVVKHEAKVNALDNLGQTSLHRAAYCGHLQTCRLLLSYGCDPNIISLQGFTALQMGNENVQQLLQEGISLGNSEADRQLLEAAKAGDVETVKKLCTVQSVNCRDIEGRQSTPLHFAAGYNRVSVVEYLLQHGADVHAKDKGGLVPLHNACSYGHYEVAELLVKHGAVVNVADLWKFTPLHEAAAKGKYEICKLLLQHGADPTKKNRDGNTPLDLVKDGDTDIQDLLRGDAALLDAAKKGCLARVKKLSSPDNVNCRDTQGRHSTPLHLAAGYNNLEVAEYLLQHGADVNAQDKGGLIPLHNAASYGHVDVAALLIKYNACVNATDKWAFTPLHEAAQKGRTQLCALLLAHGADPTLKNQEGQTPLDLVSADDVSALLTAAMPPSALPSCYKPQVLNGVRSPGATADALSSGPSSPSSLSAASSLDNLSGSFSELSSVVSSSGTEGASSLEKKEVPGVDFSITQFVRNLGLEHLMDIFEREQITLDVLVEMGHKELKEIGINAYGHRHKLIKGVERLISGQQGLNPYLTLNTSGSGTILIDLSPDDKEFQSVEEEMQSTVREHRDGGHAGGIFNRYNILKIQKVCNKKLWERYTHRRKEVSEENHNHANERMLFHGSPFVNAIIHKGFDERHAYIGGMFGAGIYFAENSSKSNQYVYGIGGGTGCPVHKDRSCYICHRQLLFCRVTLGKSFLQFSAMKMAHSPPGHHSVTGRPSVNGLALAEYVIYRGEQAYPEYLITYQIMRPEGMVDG
# test-description: In vitro Scintillation Proximity Assay (SPA) for TANK-2 inhibitory activity
# Assay type: biochemical
# test-parameters: read-out: in vitro SPA assay TANK-2 pIC50 (converted)
# note: exactly 200 nM is not below, so it is rule not met; use rule met for IC50 strictly under it

Here's what some known entries look like.
{"compound": "CCc1cc2ccc(C(C)(C#N)Cc3cccc(NC)c3)cc2[nH]c1=O (centres unmarked)", "assay-target": "TANK-2 enzyme (Homo sapiens)", "class": "rule not met"}
{"compound": "CCc1cc2ccc(C(C)(C#N)Cc3cccc(NC(=O)N4CCOCC4)c3)cc2[nH]c1=O (centres unmarked)", "assay-target": "TANK-2 enzyme (Homo sapiens)", "class": "rule met"}
{"compound": "Cc1cc2ccc(C(C)(C#N)Cc3ccc(C(F)(F)F)o3)cc2[nH]c1=O (centres unmarked)", "assay-target": "TANK-2 enzyme (Homo sapiens)", "class": "rule not met"}
{"compound": "CCc1cc2ccc(C(C)(C#N)Cc3ccc(Cl)nc3Cl)cc2[nH]c1=O (centres unmarked)", "assay-target": "TANK-2 enzyme (Homo sapiens)", "class": "rule met"}
{"compound": "CCc1cc2ccc(C(C)(C#N)Cc3cccc(C(=O)O)c3)cc2[nH]c1=O (centres unmarked)", "assay-target": "TANK-2 enzyme (Homo sapiens)", "class": "rule met"}

-- ask Please let me know if CCc1cc2ccc(C(C)(C#N)Cc3c(F)c(F)c(F)c(F)c3F)cc2[nH]c1=O (centres unmarked) shows IC50 below 200 nM.
-- reply rule met

-- ask Please let me know if COc1ccccc1-c1nc(CC(C)(C#N)c2ccc3cc(C)c(=O)[nH]c3c2)no1 (centres unmarked) shows IC50 below 200 nM.
-- reply rule met
